FYI, the data here is from PubChem BioAssay AID1996.

Conditions: buffer; pH 7.4; 200.0 µM
Recorded solubility kinetic values for a group of compounds are listed next.
METRIC NAME: solubility kinetic (µg/mL)

- O=C(NC(=S)NCc1ccccc1)c1cccc([N+](=O)[O-])c1: 2.2
- Cc1cccc(NS(=O)(=O)c2ccc3oc(=O)ccc3c2)c1C: 44.8
- Cc1ccc(NC(=O)OCCNC(=O)c2ccncc2)cc1: 44.4
- O=C(Cc1ccccc1[N+](=O)[O-])NCCc1ccc(F)cc1: 44.6
- COc1cccc(/C=C/C(=O)OCC(=O)NCc2ccc3c(c2)OCO3)c1: 3.3
- CC(C)(C)NC(=O)COC(=O)c1c2c(nc3ccccc13)CCC2: 35.8
- COc1ccc(N2C(=O)/C(=C/c3ccco3)C(=O)NC2=S)cc1: 48.8
- O=C(NC(=S)N1CCc2ccccc21)c1ccccc1Cl: 46.6
